Attribution: ChEMBL document CHEMBL3351626

Molecular target: Mu-type opioid receptor (Homo sapiens)
Assay type: functional, cell-based, CHO-K1
MEASURE_NAME: pEC50
A value of pEC50 is the negative decimal logarithm of a concentration given in moles per litre.

The following molecules have reported results that may help.
Cc1nn(-c2ccccc2Br)c2c1C(=O)CC(C)(C)C2
5.95
Cc1nn(-c2ccccc2Cl)c2c1C(=O)CC(C)(C)C2
5.64

Next:
Quick note, pEC50 for Cc1nn(-c2ccc(Br)cc2)c2c1C(=O)CC(C)(C)C2 landed at 5.00

* * *

Target: Delta-type opioid receptor (Homo sapiens, UniProt P41143)
Sequence (P41143 whole entry): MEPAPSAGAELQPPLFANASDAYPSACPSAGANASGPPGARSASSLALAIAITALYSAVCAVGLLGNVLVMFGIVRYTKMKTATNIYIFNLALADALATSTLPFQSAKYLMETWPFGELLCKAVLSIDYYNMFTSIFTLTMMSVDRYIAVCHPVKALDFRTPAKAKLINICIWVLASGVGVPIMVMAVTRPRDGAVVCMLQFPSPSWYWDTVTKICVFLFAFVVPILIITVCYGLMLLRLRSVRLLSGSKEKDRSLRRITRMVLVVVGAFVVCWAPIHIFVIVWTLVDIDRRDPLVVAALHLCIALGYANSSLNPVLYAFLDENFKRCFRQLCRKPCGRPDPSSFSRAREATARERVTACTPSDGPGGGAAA
Test: Agonist activity at human delta opioid receptor expressed in HEK293 cells assessed as inhibition of forskolin-induced cAMP production after 30 mins by HTRF assay
MEASURE_NAME: IC50

Consider the following illustrative entries.
Cc1ccc(-n2nc(C)c3c2CC(C)(C)CC3=O)c(Br)c1
> 100 µM
Cc1nn(-c2ccc(Br)cc2Br)c2c1C(O)CC(C)(C)C2 (stereo not given)
> 100 µM
Cc1nn(-c2ccc(Cl)cc2Cl)c2c1C(=O)CC(C)(C)C2
10 µM
Cc1nn(-c2ccc(Br)cc2Br)c2c1C(=O)CC(C)(C)C2
1.69 µM

Next item in the queue.
IC50 for Delta-type opioid receptor (Homo sapiens, UniProt P41143) with input Cc1nn(-c2ccc(Cl)cc2Br)c2c1C(=O)CC(C)(C)C2 equals 3.38 µM

* * *

Target: Mu-type opioid receptor (Homo sapiens)
Type: functional, cell-based, CHO-K1
MEASURE_NAME: pEC50
pEC50 field: float, defined as -log10 of concentration (mol/L).

For orientation, consider the following solved cases.
Cc1cc(Cl)ccc1-n1nc(C)c2c1CC(C)(C)CC2=O
6.43
Cc1nn(-c2ccc(Cl)cc2)c2c1C(=O)CC(C)(C)C2
4.87

Kindly note the recorded pEC50 for CCc1ccccc1-n1nc(C)c2c1CC(C)(C)CC2=O , which is 4.72

Measured pEC50, CC1(C)CC(=O)c2c(C(F)(F)F)nn(-c3ccc(Cl)cc3Cl)c2C1 : 5.81

Quick note, pEC50 for Cc1ccc(C)c(-n2nc(C)c3c2CC(C)(C)CC3=O)c1 landed at 5.00

Field pEC50 (entry COC(=O)c1ccc(-n2nc(C)c3c2CC(C)(C)CC3=O)cc1 ) reads 5.00

Data point: CCOC(=O)c1ccccc1-n1nc(C)c2c1CC(C)(C)CC2=O ; pEC50 = 4.52

// pEC50 value for Cc1ccc(-n2nc(C)c3c2CC(C)(C)CC3=O)c(Br)c1 : 7.39

// sample Cc1nn(-c2ccc(F)cc2F)c2c1C(=O)CC(C)(C)C2 , its pEC50 was 4.99

// sample CC1(C)CC(=O)c2c(C3CC3)nn(-c3ccc(Cl)cc3Cl)c2C1 , its pEC50 was 6.43

* * *

Mu-type opioid receptor (Rattus norvegicus) pKi data
Sequence (P33535 whole entry): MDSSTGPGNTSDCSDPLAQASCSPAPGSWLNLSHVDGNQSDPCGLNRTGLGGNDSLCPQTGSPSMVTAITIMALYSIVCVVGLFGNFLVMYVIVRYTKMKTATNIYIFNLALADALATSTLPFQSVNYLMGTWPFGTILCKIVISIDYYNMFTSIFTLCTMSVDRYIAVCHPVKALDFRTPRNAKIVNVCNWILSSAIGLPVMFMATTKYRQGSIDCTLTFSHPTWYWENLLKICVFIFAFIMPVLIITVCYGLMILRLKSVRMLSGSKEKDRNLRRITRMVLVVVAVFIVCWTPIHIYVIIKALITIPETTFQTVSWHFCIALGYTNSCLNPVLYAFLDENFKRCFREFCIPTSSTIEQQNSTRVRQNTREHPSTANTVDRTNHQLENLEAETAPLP
Would you please state pKi, meaning minus log10 of the concentration in mol/L, as a bare number?

Solved entries:
Cc1ccc(-n2nc(C)c3c2CC(C)(C)CC3=O)c(Br)c1
6.13
Cc1nn(-c2ccc(Br)cc2Br)c2c1C(=O)CC(C)(C)C2
6.33
CC1(C)CC(=O)c2c(C3CC3)nn(-c3ccc(Cl)cc3Cl)c2C1
5.89

--- query ---
Recorded pKi (compound Cc1nn(-c2ccc(Cl)cc2Br)c2c1C(=O)CC(C)(C)C2 ): 6.21

* * *

Some compounds, each annotated with its measured IC50.
Target: Kappa-type opioid receptor (Homo sapiens, UniProt P41145)
Sequence (P41145 whole entry): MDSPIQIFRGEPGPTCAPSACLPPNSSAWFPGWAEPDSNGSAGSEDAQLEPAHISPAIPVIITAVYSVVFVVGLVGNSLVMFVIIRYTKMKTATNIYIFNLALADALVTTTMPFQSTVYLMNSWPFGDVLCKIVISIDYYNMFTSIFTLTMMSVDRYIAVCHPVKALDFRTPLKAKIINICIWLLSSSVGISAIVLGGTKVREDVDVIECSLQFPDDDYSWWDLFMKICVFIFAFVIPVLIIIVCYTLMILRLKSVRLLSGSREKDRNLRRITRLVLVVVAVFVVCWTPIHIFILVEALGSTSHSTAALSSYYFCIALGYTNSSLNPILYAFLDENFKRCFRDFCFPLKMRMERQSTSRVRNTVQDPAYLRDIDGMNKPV
Assay: Agonist activity at human kappa opioid receptor expressed in HEK293 cells assessed as inhibition of forskolin-induced cAMP production after 30 mins by HTRF assay
Give a bare numeral; the unit nM is implied.

Solved cases below.
Cc1nn(-c2ccc(Cl)cc2Br)c2c1C(=O)CC(C)(C)C2
570
Cc1nn(-c2ccc(Cl)cc2Cl)c2c1C(=O)CC(C)(C)C2
2650
Cc1ccc(-n2nc(C)c3c2CC(C)(C)CC3=O)c(Br)c1
370
Cc1nn(-c2ccc(Br)cc2Br)c2c1C(O)CC(C)(C)C2 (stereo not given)
1100

Known value: Kappa-type opioid receptor (Homo sapiens, UniProt P41145) IC50 of the compound Cc1nn(-c2ccc(Br)cc2Br)c2c1C(=O)CC(C)(C)C2 equals 410

* * *

Recorded pIC50 for the following compounds
Molecular target: UniProtKB P35372
Test: Agonist activity at human mu opioid receptor expressed in HEK293 cells assessed as inhibition of forskolin-induced cAMP production after 30 mins by HTRF assay
Quick note: pIC50 values are minus log10 of concentrations in mol/L.

As a guide, the following entries are already answered.
Cc1nn(-c2ccc(Cl)cc2Cl)c2c1C(=O)CC(C)(C)C2
5.10
Cc1nn(-c2ccc(Br)cc2Br)c2c1C(O)CC(C)(C)C2 (stereo not given)
5.47
Cc1nn(-c2ccc(Br)cc2Br)c2c1C(=O)CC(C)(C)C2
6.14
Cc1ccc(-n2nc(C)c3c2CC(C)(C)CC3=O)c(Br)c1
5.22

The value of pIC50 recorded for Cc1nn(-c2ccc(Cl)cc2Br)c2c1C(=O)CC(C)(C)C2 when tested on UniProtKB P35372 reads 5.48

* * *

Biological target: Mu-type opioid receptor (Homo sapiens, UniProt P35372)
Sequence (P35372 whole entry): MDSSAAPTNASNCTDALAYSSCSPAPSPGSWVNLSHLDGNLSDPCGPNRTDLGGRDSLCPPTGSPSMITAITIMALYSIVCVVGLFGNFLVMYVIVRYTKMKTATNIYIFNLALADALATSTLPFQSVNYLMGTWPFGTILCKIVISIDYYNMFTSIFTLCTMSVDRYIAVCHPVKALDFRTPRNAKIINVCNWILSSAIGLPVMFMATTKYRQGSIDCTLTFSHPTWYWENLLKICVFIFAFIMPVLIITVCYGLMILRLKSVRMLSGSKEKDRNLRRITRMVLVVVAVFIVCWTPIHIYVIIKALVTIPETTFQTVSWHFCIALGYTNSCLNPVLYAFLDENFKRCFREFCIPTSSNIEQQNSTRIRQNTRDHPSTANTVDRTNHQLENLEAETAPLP
Assay type: functional, cell-based, CHO-K1
pEC50: −log10 of the molar value.
Would you please tag the item Yes when its pEC50 is 5 or above, and No when it is below?

Cc1nn(-c2ccc(Br)cc2Br)c2c1C(O)CC(C)(C)C2 (configuration not stated)
Yes
Cc1ccccc1-n1nc(C)c2c1CC(C)(C)CC2=O
Yes
Cc1n[nH]c2c1C(=O)CC(C)(C)C2
No
Cc1nn(-c2ccc(Cl)cc2Cl)c2c1C(=O)CC(C)(C)C2
Yes
Cc1nn(-c2ccccc2)c2c1C(=O)CC(C)(C)C2
No
Cc1nn(-c2ccc(Cl)cc2Br)c2c1C(=O)CC(C)(C)C2
Yes

Request: Check if pEC50 >= 5 (inclusive). Item: Cc1ccc(-n2nc(C)c3c2CC(C)(C)CC3=O)c(C)c1
Result: Yes

Request: State whether the measured pEC50 reaches 5, counting equality as reaching it, for Cc1nn(-c2cc(Cl)ccc2Cl)c2c1C(=O)CC(C)(C)C2
Result: Yes

Request: State whether the measured pEC50 reaches 5, counting equality as reaching it, for Cc1nn(-c2ccc(Br)cc2Br)c2c1C(=O)CC(C)(C)C2
Result: Yes

Request: Decide: is the reported value of pEC50 for COc1ccc(-n2nc(C)c3c2CC(C)(C)CC3=O)cc1 equal to or greater than 5?
Result: No

* * *

Target: Mu-type opioid receptor (Homo sapiens, UniProt P35372)
Test: Agonist activity at myc-tagged mu opioid receptor (unknown origin) expressed in AtT-20 cells assessed as induction of membrane potential hyperpolarization
Assay type: cell-based, AtT20
MEASURE_NAME: EC50 (nM)
Please reply with the bare figure in nM and do not write the unit itself.

Examples with answers:
Cc1nn(-c2ccc(Cl)cc2Br)c2c1C(=O)CC(C)(C)C2
100
Cc1ccc(-n2nc(C)c3c2CC(C)(C)CC3=O)c(Br)c1
200

Proceed to the following item.
Memo: Cc1nn(-c2ccc(Br)cc2Br)c2c1C(=O)CC(C)(C)C2 , reported EC50: 5490
